# Method summary: Human HepG2 cell viability assay in 384 well format
# Format: toxicity, cell-based
# Parameters: dose 125 nL, time 70.5 hour; concentration not given beside the values
# Measurement conditions: HepG2 cells, read-out: Inhibition
So basically: cytotoxicity at 70.5 h at -10% or higher? That is 1.0. Lower than -10%? That is 0.0.

For orientation, consider the following solved cases.
Compound	Category label
Nc1ncnc2nc(C3CCN(C(=O)Cc4ccccc4)C3)ccc12 (stereo unspecified)	1.0
Cc1ncc(CNC(=O)Cc2ccc(Cl)cc2)c(C2CCCN2C)n1 (stereo unspecified)	0.0
CC(NCC1(N(C)C)CCOCC1)c1ccc(Cl)cc1 (stereo unspecified)	1.0
COC(=O)CCNC(=O)c1nnn(-c2ccc(C)cc2)c1C1CC1	1.0
Cc1nc(CN2C[C@@H]3CN(c4ncccn4)C[C@@H]3C2=O)cs1	0.0

Here is another compound to look at.
INPUT: Check the entry "Cc1cccc(-c2nc(C)nn2CN2CCN(c3ncccn3)CC2)c1" : does cytotoxicity at 70.5 h equal or exceed -10%?
OUTPUT: 1.0

###

# Method summary: Human HepG2 cell viability assay in 384 well format
# Assay type: toxicity, cell-based
# Set-up: dose 125 nL, time 70.5 hour; concentration not given beside the values
# Measurement conditions: HepG2 cells, read-out: Inhibition
Property measured: cytotoxicity at 70.5 h (%)
Give bare numbers, in %.

Compound	Scale unit	Result number
CN(C)C[C@]12COC[C@H]1CN(Cc1ccc3ccccc3n1)C2	%	-11.7
COCCNc1ncc(-c2onc(C)c2C)c(-c2ccco2)n1	%	-5.67
CN(Cc1ccco1)[C@@H]1CN(Cc2ccccn2)C[C@@H]2CCCO[C@@H]21	%	-9.21

I'm hoping you can list cytotoxicity at 70.5 h for every compound here, please.
1. CC(C)NC(=O)CC1COC2(CCN(Cc3ccccc3)CC2)C1 (stereo unspecified)
2. Oc1nc(N2CCCC2)nc2nccc(-c3ccccn3)c12
3. CN(C)c1cc(C(=O)N2CCCN(Cc3cscn3)CC2)ccn1

OUTPUT:
[-14.2, -22.4, -8.49]

I'm hoping you can list cytotoxicity at 70.5 h for every compound here, please.
1. Cc1cc(NC2CCN(Cc3ccccn3)CC2)n2nc(C)c(C)c2n1
2. O=C(c1cccc2[nH]ccc12)N1CCC2(CCOC2)C1 (stereo unspecified)

OUTPUT:
[0.979, 2.34]

I'm hoping you can list cytotoxicity at 70.5 h for every compound here, please.
1. NC(=O)c1cnn2c1NCC(CNCCc1cccs1)C2 (stereo unspecified)
2. COc1cc(NC(=O)NC2CCCC2)ccc1N1CCOC1=O
3. CCOCC(=O)N(Cc1ccccn1)Cc1ccccc1C

OUTPUT:
1. -5.82
2. -8.76
3. -4.52

###

# Method summary: Human HepG2 cell viability assay in 384 well format
# Assay type: toxicity, cell-based
# Set-up: dose 125 nL, time 70.5 hour; concentration not given beside the values
# Measurement conditions: HepG2 cells, read-out: Inhibition
Property measured: cytotoxicity at 70.5 h
Numeric answer plus unit only.

Before answering, review these 6 worked examples.
Compound	Result
Cc1ccc(C(=O)Nc2ccc3c(c2)N(C)CCN(C)C3)c(=O)[nH]1	-7.32%
CC(=O)N1CC2(CCCC2)c2ccccc21	-3.2%
CSCC(C)(O)CNc1cccc(F)c1C#N (configuration not stated)	-15.5%
O=C(NCCc1ccccn1)C1=NN(c2ccccc2)C(=O)CN1	-6.71%
CN(CC1CCOC1)S(=O)(=O)c1cccc(C(=O)N2CCOCC2)c1 (configuration not stated)	-4.27%
COc1ccc(CN2CCn3c(CO)nnc3C2)cc1CN1CCCC1	2.95%

I'm hoping you can list cytotoxicity at 70.5 h for every compound here, please.
1. Cn1cc(C#N)cc1C(=O)Nc1ccc(CN2CCOCC2)cn1
2. CCC(O)CN1CCN(C(=O)c2ccc(Cn3cccc3)cc2)CC1 (configuration not stated)

OUTPUT:
1. -2.71%
2. -11.6%

###

Exercise: for every item that follows, state its recorded cytotoxicity at 70.5 h.
# Method summary: Human HepG2 cell viability assay in 384 well format
# Format: toxicity, cell-based
# Design: dose 125 nL, time 70.5 hour; concentration not given beside the values
# Measurement conditions: HepG2 cells, read-out: Inhibition
Numbers only, in %.

Before answering, review these 2 worked examples.
Molecule	Property measured	Result number
COc1cc(Cl)c(NC(=O)c2cc3c([nH]c2=O)CCCC3=O)cc1OC	cytotoxicity at 70.5 h	-7.89
CC(NC(=O)c1cccs1)C(=O)NS(=O)(=O)c1cccc(C#N)c1 (centres undefined)	cytotoxicity at 70.5 h	2.5

I'm hoping you can list cytotoxicity at 70.5 h for every molecule here, please.
1. Cc1cc(NC2CCC(=O)N(C)C2)n2nccc2n1 (centres undefined)
2. Cc1ccc(N2CCCC(NCc3ccc(C)o3)C2)nn1 (centres undefined)
3. COCCn1cc2c(n1)C(CNCc1ccc(F)cc1)OCC2 (centres undefined)
4. O=C([C@H]1C[C@H]2OCC[C@H]2N(C(=O)c2ccncc2)C1)N1CCCC1
5. CNS(=O)(=O)c1ccc(C(=O)NCCc2ccccn2)cc1
6. Cc1ccc(-c2nnc(C(C)N3CCn4c(C)nnc4C3)o2)cc1 (centres undefined)
7. CC(=O)N1CCN(CCCSCc2ccccc2)CC1

OUTPUT:
1. -9.21
2. -7.71
3. 0.574
4. -5.12
5. -10.7
6. -1.43
7. 6.76

I'm hoping you can list cytotoxicity at 70.5 h for every molecule here, please.
1. c1csc(N2CCCN(c3ncnc4sccc34)CC2)n1
2. CC(C)N(CC(N)=O)CC(=O)N(C1=CCCCC1)C1CC1
3. Cn1cc(CN2CC[C@H]3C[C@@H](c4nc(C5CC5)cs4)O[C@@H]3C2)cn1
4. Cc1ccc(NC2CCN(C(=O)CCCn3ccnc3C)CC2)nn1
5. CN(Cc1ccncc1)C(CO)c1cccc(F)c1 (centres undefined)

OUTPUT:
[10.8, 3.33, 5.37, -7.72, -27.2]

I'm hoping you can list cytotoxicity at 70.5 h for every molecule here, please.
1. Cc1cc(NCc2cccnc2)n2nc(C)cc2n1
2. CC(C)N1CCC(CC(=O)NCC2OCCc3ccccc32)CC1 (centres undefined)
3. O=C(NCCC1CCN(CC(F)(F)F)CC1)C1CCOC1 (centres undefined)
4. N#CCCN(Cc1ccccn1)C(=O)Nc1cccnc1

OUTPUT:
[-8.91, -9.87, 3.01, -7.42]

I'm hoping you can list cytotoxicity at 70.5 h for every molecule here, please.
1. COCCO[C@H]1CCN(Cc2cnn(C)c2)[C@H]1Cc1cccnc1
2. CC(C)N(Cc1cccnc1)C(=O)CCSc1ccc(C#N)cc1
3. CN1CCN(CC2CC2)C(=O)c2cnc(N3CCCCC3)nc21
4. COCCN(C)C[C@@H]1CN(C(=O)c2ccoc2)C[C@@H]1CO
5. CCc1cccc(N2CCC(NC(=O)C3CCC3)CC2)c1
6. CC(=O)NCc1cc2n(n1)CCN(Cc1cccc(Cl)c1Cl)C2

OUTPUT:
1. -3.42
2. 5.31
3. 30.2
4. -7.32
5. -6.88
6. 0.275

###

Exercise: for every item that follows, state its recorded cytotoxicity at 70.5 h.
# Method summary: Human HepG2 cell viability assay in 384 well format
# Type: toxicity, cell-based
# Design: dose 125 nL, time 70.5 hour; concentration not given beside the values
# Measurement conditions: HepG2 cells, read-out: Inhibition
Give bare numbers, in %.

Before answering, review these 2 worked examples.
Molecule	Property measured	Result number
CCOc1ccccc1-c1noc(CN2CC(n3cccn3)C2)n1	cytotoxicity at 70.5 h	-14.4
Cc1nnc(SC2CCN(c3sccc3C#N)C2=O)s1 (centres undefined)	cytotoxicity at 70.5 h	24.5

I'm hoping you can list cytotoxicity at 70.5 h for every molecule here, please.
1. Cn1cc(CN2CCCC(Cn3cc(CCCO)nn3)C2)cn1 (centres undefined)
2. COc1c(CNCc2ccc(N3CCOCC3)nc2)c(C)nn1C
3. O=C(C1CC(c2ccccc2)=NO1)N1CCc2ccccc21 (centres undefined)

OUTPUT:
1. -7.9
2. -5.76
3. 28.5

I'm hoping you can list cytotoxicity at 70.5 h for every molecule here, please.
1. O=C(NC[C@H]1OC[C@@H]2CCN(Cc3ccco3)C[C@@H]21)c1ccsc1
2. Cc1ccc(CC(=O)N2CCC(Nc3cccnn3)CC2)s1
3. COc1ccc(Oc2ncccc2C(F)(F)F)cc1CN1CCCC1
4. COc1cc(C)c(NC(=O)CCn2cccc2)cc1OC

OUTPUT:
1. -5.61
2. 0.908
3. 14
4. -6.6

I'm hoping you can list cytotoxicity at 70.5 h for every molecule here, please.
1. COc1ccc(O[C@H]2COCCN(Cc3cccc4c3OCO4)C2)cc1
2. COc1ccc(S(=O)(=O)Nc2cnc(N(C)C)nc2)cc1

OUTPUT:
1. 3.63
2. 29.6

I'm hoping you can list cytotoxicity at 70.5 h for every molecule here, please.
1. Cc1cnc(N2C[C@@H]3[C@@H](C2)OCC(=O)N3CC(C)C)nc1
2. CCn1cnnc1CN(C)C(=O)c1cc(COc2cccc(F)c2)[nH]n1
3. CN(C)C(=O)N1CCN(Cc2ccc3occc3c2)[C@H]2CS(=O)(=O)C[C@H]21

OUTPUT:
2.16
10.8
-3.65

I'm hoping you can list cytotoxicity at 70.5 h for every molecule here, please.
1. Cn1ccnc1CN1CCOCC(Cc2ccccn2)C1 (centres undefined)
2. Cc1cc2c(c(-c3cnccn3)c1)OC(CN)C2 (centres undefined)
3. Fc1ccc(CN2CCCn3cnc(COCC4CC4)c3C2)cc1

OUTPUT:
[-12.6, -6.44, 2.87]

I'm hoping you can list cytotoxicity at 70.5 h for every molecule here, please.
1. Cc1ccc(-c2nc(CN3CCOC(Cn4cccn4)C3)co2)cc1 (centres undefined)
2. Cc1nc(C2CCCN2Cc2cc(Cl)c3c(c2)OCCCO3)no1 (centres undefined)
3. CN1CC(=O)N(c2ccccc2)Cc2c(NC3CC3)ncnc21
4. Cc1nn(C)c(C)c1NC(=O)CN1CCCC1c1noc(C2CC2)n1 (centres undefined)
5. Cc1csc(CNc2cnc3c(c2)c(C)nn3C)n1
6. CC(C)NC(=O)N1CCC2(CC1)CC[C@@]1(C(=O)N(C)C)CN(C)C[C@@H]21

OUTPUT:
1. -5.71
2. -7.15
3. 0.416
4. 8.6
5. 12.8
6. -11.9

INPUT: # query: cytotoxicity at 70.5 h of entry "Cn1cnc2c1CCN(Cc1nc(-c3ccsc3)no1)C2"
OUTPUT: 32.4
